# procedureDetails: in vivo
# Format: in vivo, mice
# conditions: male, CD-1, mouse, plasma, ip, 10 mg/kg, mice, IP 10 mg/kg, plasma, 1440 min, mean; read-out: Plasma concentrations of cmpd 7827_0016 in mice following IP (10 mg/kg) administration, C
experimentalEndpoint: concentration at 1440 min (µg/mL)
The reply should contain only the number, in µg/mL.

Query block: Which measured concentration at 1440 min value corresponds to O=C(O)C1CCC2(CC1)CC(Nc1ncnc3[nH]c4c(F)cccc4c13)C2 (stereo not shown) ?
Result block: 0.0834

---

For each record, write down the corresponding inhibition at 10 µM.
# assayedTarget: EP4R (Homo sapiens, UniProt P35408)
# Construct: Tango fusion cassette (only 'tango' is printed); expressed in transfected cells; host or cells: HTLA cells (tTA-dependent luciferase reporter, β-arrestin2-TEV fusion)
# Sequence (P35408 whole entry, the tested form may be a part): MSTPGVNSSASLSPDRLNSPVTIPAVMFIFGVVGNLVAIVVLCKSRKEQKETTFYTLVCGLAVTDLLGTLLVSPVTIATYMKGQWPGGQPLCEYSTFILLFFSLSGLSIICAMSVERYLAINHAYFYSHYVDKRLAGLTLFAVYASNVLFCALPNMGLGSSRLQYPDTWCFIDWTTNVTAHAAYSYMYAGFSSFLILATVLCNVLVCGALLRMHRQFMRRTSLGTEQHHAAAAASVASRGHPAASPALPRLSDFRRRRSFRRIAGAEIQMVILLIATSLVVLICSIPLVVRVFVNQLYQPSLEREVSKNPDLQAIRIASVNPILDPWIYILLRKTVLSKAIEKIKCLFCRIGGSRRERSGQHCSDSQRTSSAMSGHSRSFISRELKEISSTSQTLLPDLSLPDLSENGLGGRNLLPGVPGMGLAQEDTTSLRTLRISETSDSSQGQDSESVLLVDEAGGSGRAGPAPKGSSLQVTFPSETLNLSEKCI
# procedureDetails: biochemical
# Assay type: binding
# conditions: […], read-out: % displacement of 3HPGE2 at 10 µM, 10 µM compound vs 10 nM 3H-PGE2
// return numeric value only (unit: %, not printed)

Query block: Param item = O=C(O)CCC1CCCN(C(=O)c2nn(-c3ccccc3)c3c2CCC3)C1 (stereo not drawn) [Compound 61] ; retrieve measured inhibition at 10 µM.
Result block: 15.1

Query block: Consider next the compound Cc1cccc(C2(C(=O)NC3CCSC4(C3)CC(C(=O)O)C4)CC2)c1 (stereo not drawn) [Compound 45] in the same way.
Result block: -1.8

Query block: Please do the same for O=C(O)CSc1nc2cc(Cl)ccc2n1Cc1ccccc1 [Compound 39] as well.
Result block: -4.9

Query block: Continue with O=C(NCc1ccc(C(F)F)cc1)NC[C@H]1CC[C@H](C(=O)O)CC1 [Compound 41]
Result block: -3.4

Query block: CC(c1cn(-c2ccccc2)nn1)N1CCN(C(=O)C(=O)O)CC1 (stereo not drawn) [Compound 49] ?
Result block: 0.8

Query block: Okay, and CN(C(=O)C1CCCC1Cc1ccccc1)[C@H]1C[C@@H](C(=O)O)C1 (stereo partly drawn) [Compound 40] ?
Result block: -4

Query block: Check O=C(O)CCC(Cc1ccccc1)NS(=O)(=O)C=Cc1ccccc1Cl (stereo not drawn) [Compound 55] too.
Result block: 7.6

Query block: Entry O=C(O)Cc1ccc(C=C2C(=O)N3CCCc4cccc2c43)cc1 [Compound 42] please
Result block: -3.2

Query block: Same for CC1CC(C(=O)O)CN(C(=O)C2(c3cccc(C(F)(F)F)c3)CC2)C1 (stereo not drawn) [Compound 3]
Result block: -22.5

---

# procedureDetails: in vivo
# Assay type: in vivo, mice
# conditions: male, CD-1, mouse, CSF, ip, 10 mg/kg, mice, IP 10 mg/kg, CSF, 240 min, mean of 3; read-out: CSF concentration C (mean)
experimentalEndpoint: concentration at 240 min (µg/mL)
Entry rule: numbers only, all in µg/mL.

Query block: What concentration at 240 min value was documented for this compound, CCc1nc2c(C)nc(C)cc2n1-c1ccc(CCNC(=O)NS(=O)(=O)c2ccc(C)cc2)cc1 [Grapiprant, reference compound] ?
Result block: 0

---

# assayedTarget: EP4R (Homo sapiens, UniProt P35408)
# Construct: Tango fusion cassette (only 'tango' is printed); expressed in transfected cells; host or cells: HTLA cells (tTA-dependent luciferase reporter, β-arrestin2-TEV fusion)
# procedureDetails: PRESTO-Tango β-arrestin2 recruitment assay
# Assay type: cell-based
# conditions: calculated using the Cheng Prusoff equation; read-out: PRESTO-Tango Ki*
experimentalEndpoint: log10(Ki) (log10 of the value in nM)
Reminder: these figures are log10 of reported Ki, in nM before transformation.

Query block: // lookup log10(Ki) for O=C(O)C1CCC2(CC1)CC(Nc1ncnc3sc4ccccc4c13)C2 (stereo not drawn)
Result block: 1.95

Query block: Now the same for O=C(NC1CCCC(C(=O)O)CC1)c1csc(C2CCCCC2)c1 (stereo not drawn)
Result block: 2.88

Query block: Again, but for O=C([O-])C1CCC2(CC1)CC(Nc1ncnc3[nH]c4c(F)cccc4c13)C2.[Na+] (stereo not drawn)
Result block: 1.66

Query block: Param item: O=C(O)C1CCC2(CC1)CC(Nc1ncnc3[nH]c4c(F)cccc4c13)C2 (stereo not drawn)
Result block: 1.78

Query block: Follow-up entry: O=C(O)C1CCC2(CC1)CC(Nc1ncnc3[nH]c4ccccc4c13)C2 (stereo not drawn)
Result block: 2.04

Query block: Try the compound O=C(O)C1CCC2(CC1)CC(Nc1ncnc3sc4c(c13)CCCC4)C2 (stereo not drawn)
Result block: 2.23
